All values here come from patent US20180305450A1.

# target.system: T1, recombinant biotinylated human PAR2 extracellular domain (residues 1-75), N-terminal AviTag, C-terminal Flag … (human, UniProt P55085 26-75, biotin on the AviTag (enzymatic biotinylation))
# T1 construct: also called Bio-human-PAR2 ECD; human PAR2 ECD; not shown: N-terminal AviTag (Avidity LLC); C-terminal Flag and poly Histidine tags
# T1 sequence (P55085 26-75): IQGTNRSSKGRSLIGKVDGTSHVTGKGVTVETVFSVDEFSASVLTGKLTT
# experimental.details: HTRF competition with Dylight650-Par0067 IgG, IgG
# Method: Parent Par0067 IgG (used as a reference/control in all assays) was pre-diluted to give a 2000 nM stock in each of the two different pH assay buffers (in order to give a top final assay IgG concentration of 500 nM). All test, or other reference/control IgG were tested from a top final assay concentration of ¼ of the neat undiluted sample (i.e. no pre-dilution step was performed). […]
Please use Fulfilled whenever Fold IC50 pH 7.4 (Variant v Par0067) is not below 30 fold, and Not fulfilled whenever it is.

Inquiry: State whether the measured Fold IC50 pH 7.4 (Variant v Par0067) reaches 30 fold, counting equality as reaching it, for PaB670144 IgG (antibody, V domains shown, IgG1-TM (L234F, L235E, P331S), human lambda light chain) VH: EVQLLESGGGLVQPGGSLRLSCAASGFTFSSYAMNWVRQAPGKGLEWVSTISYHGHHISYADSHHHRFTISRDNSKNTLYLQMNSLRAEDTAVYYCARINHDPMDVWGQGTLVTVSS VL: SIELTQPPSVSVSPGQTASITCSGDNLGKKYVQWYQQKPGQSPVLVIYDDSNRPSGIPERFSGSNSGNTATLTISGTQAMDEADYYCQTWDGNPTHGETNVFGGGTKLTVL
Reply text: Fulfilled

Inquiry: Record PaB670162 IgG (antibody, V domains shown, IgG1-TM (L234F, L235E, P331S), human lambda light chain) VH: EVQLLESGGGLVQPGGSLRLSCAASGFTFSSYAMNWVRQAPGKGLEWVSTISYHGHHISYADSHHHRFTISRDNSKNTLYLQMNSLRAEDTAVYYCARINNDPMDVWGQGTLVTVSS VL: SIELTQPPSVSVSPGQTASITCSGDNLGKKYVQWYQQKPGQSPVLVIYDDSNRPSGIPERFSGSNSGNTATLTISGTQAMDEADYYCHTWDGHHTTGETNHFGGGTKLTVL ; criterion: Fold IC50 pH 7.4 (Variant v Par0067) no lower than 30 fold. Met?
Reply text: Not fulfilled

Inquiry: Hi team, for PaB670159 IgG (antibody, V domains shown, IgG1-TM (L234F, L235E, P331S), human lambda light chain) VH: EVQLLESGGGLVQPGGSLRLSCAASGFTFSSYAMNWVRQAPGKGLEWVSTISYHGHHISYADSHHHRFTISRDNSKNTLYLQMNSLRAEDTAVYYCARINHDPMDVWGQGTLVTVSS VL: SIELTQPPSVSVSPGQTASITCSGDNLGKKYVQWYQQKPGQSPVLVIYDDSNRPSGIPERFSGSNSGNTATLTISGTQAMDEADYYCQTWDGHHHTGETNHFGGGTKLTVL , is the recorded Fold IC50 pH 7.4 (Variant v Par0067) at or above 30 fold?
Reply text: Fulfilled

Inquiry: Item PaB670149 IgG (antibody, V domains shown, IgG1-TM (L234F, L235E, P331S), human lambda light chain) VH: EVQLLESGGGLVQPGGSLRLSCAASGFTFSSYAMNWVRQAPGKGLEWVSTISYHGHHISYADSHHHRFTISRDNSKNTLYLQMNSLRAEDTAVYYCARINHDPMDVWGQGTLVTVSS VL: SIELTQPPSVSVSPGQTASITCSGDNLGKKYVQWYQQKPGQSPVLVIYDDSNRPSGIPERFSGSNSGNTATLTISGTQAMDEADYYCHTWHHHPTHGEHNVFGGGTKLTVL with Fold IC50 pH 7.4 (Variant v Par0067) of 30 fold or above?
Reply text: Fulfilled

Inquiry: Reported Fold IC50 pH 7.4 (Variant v Par0067) reaches at least 30 fold for PaB670141 IgG (antibody, V domains shown, IgG1-TM (L234F, L235E, P331S), human lambda light chain) VH: EVQLLESGGGLVQPGGSLRLSCAASGFTFSSYAMNWVRQAPGKGLEWVSTISYSGSLISYADSVKGRFTISRDNSKNTLYLQMNSLRAEDTAVYYCARINHDPMDVWGQGTLVTVSS VL: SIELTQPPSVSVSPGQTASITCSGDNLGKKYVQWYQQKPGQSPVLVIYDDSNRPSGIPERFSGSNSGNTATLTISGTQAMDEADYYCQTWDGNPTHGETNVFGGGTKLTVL ?
Reply text: Not fulfilled
